Reference source: patent US20250296996A1

# key: entry, value: Response
Target: T1, P66 (rabbit ANGPTL7-his) (rabbit, UniProt G1T4P1 27-344)
T1 construct: mature; also called rabbit ANGPTL7 protein
T1 sequence: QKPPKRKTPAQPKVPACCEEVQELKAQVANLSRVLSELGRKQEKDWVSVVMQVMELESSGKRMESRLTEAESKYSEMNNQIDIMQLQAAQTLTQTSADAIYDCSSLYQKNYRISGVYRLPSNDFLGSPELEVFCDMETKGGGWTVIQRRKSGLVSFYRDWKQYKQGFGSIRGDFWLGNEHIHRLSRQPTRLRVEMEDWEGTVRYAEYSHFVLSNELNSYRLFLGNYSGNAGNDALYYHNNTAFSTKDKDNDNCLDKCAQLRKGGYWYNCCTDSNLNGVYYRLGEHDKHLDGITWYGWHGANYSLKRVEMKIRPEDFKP
Assay: BLI Octet HTX; IgG on AHC sensor; P66 at 200 nM; 1:1 fit
Report only the number, with the unit nm understood.

ATX-P-438 (antibody, human IgG1, kappa, N297A, V domains shown, Full chains (VH + hIgG1-Agly-Fc)) VH: QVQLVESGGGVVQPGRSLRLSCAASGFTFSSYGMHWVRQAPGKGLEWVAIISYDGNNKYYADSVKGRFTISRDNSKNTLYLQMNSLRDEDTAVYYCAKERGYSSSSGYYYYYMDVWGKGTTVTVSS VL: EIVLTQSPGTLSLSPGERATLSCRASQSVSRSYLAWYQQKPGQAPRLLIIGASTRATGIPDRFSGSGSGTDFTLTISRLEPEDFAVYYCQQGQVIPPTFGQGTKVEIKR: 0.42

Now for the binder whose Response we want.
Return reported Response. Input binder: ATX-P-425 (antibody, human IgG1, kappa, N297A, V domains shown, Full chains (VH + hIgG1-Agly-Fc)) VH: EVQLVESGGGLVKPGGSLRLSCAASGFTFSTYSMNWVRQAPGKGLEWVSSITSSSSYMFYADSVMGRFTISRDNAKNSLYLQMNSLRAEDTADYYCARDSNWGEAFDIWGQGTMVTVSS VL: DIQMTQSPSSLSASVGDRVTITCRASQGIRIDLGWFQQKPGKAPKRLIYAASSLPSGVPSRFSGSGSGTEFTLTISSLQPEDFATYYCLQHNSYPWTFGQGTKVEIKR
0.95
